target: human TLR7 (Homo sapiens); construct: host or cells: HEK293 reporter cells; assay: HEK293 NFKB reporter assay, human TLR7; format: cell-based
Observable: EC50

> print(dat)
                              record.smiles  observable  measured.value
1  CCCN(CCCNC(=O)OCC)C(=O)C1=Cc2ccc(-c3cccc(S(=O)(=O)N4CC(CO)C4)c3)cc2N=C(N)C1        EC50         1370 nM

====

Measured pEC50 accompanies every entry in the list below.
target: human TLR7 (Homo sapiens, UniProt Q9NYK1); construct: host or cells: HEK293 reporter cells; experiment: HEK293 NFKB reporter assay, human TLR7; format: cell-based; conditions: Table 1a; HEK293 reporter cells expressing human TLR7; read-out: HEK293 hTLR7 EC50
Sequence (Q9NYK1 27-1049): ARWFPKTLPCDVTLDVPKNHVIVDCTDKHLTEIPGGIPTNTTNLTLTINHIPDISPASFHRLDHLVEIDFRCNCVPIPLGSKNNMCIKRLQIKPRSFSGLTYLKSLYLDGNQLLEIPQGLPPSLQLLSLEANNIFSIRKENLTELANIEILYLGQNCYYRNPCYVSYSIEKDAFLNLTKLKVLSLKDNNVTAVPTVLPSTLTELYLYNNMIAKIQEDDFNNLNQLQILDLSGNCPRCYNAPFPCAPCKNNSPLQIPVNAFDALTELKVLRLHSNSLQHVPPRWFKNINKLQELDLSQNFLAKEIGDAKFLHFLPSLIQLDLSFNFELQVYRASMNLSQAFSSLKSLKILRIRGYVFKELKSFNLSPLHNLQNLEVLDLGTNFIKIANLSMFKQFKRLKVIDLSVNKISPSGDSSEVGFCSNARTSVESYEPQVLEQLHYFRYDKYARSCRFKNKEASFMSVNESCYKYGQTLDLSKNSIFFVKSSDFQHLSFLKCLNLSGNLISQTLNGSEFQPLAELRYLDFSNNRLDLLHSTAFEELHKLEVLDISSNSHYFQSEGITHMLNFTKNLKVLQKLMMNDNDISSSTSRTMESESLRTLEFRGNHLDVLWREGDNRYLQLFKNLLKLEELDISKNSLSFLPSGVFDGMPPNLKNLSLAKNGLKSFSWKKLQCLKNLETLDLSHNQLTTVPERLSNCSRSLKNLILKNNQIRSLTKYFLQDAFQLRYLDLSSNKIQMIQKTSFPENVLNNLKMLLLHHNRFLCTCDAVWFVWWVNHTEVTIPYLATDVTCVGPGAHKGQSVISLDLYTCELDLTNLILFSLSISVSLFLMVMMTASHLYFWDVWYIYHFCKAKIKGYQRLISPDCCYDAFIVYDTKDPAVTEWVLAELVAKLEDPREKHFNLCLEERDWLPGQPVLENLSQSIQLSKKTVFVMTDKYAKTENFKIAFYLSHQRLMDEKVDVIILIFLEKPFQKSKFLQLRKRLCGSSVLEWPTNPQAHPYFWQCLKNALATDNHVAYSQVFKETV
pEC50: −log10 of the molar value.
Observable: pEC50

> print(dat)
                               record.smiles  modifier.sign  measured.value
 1  CCCN(CCCNC(=O)OC(C)(C)C)C(=O)C1=Cc2ccc(C(=O)Nc3ccc(N4CCC(C(=O)NCCNC(C)=O)CC4)nc3)cc2N=C(N)C1              <            5.05
 2  CCCN(CCCNC(=O)OC(C)(C)C)C(=O)C1=Cc2ccc(-c3cccc(S(=O)(=O)N4CC(CO)C4)c3)cc2N=C(N)C1              =            6.24
 3  CCCN(CCCN(C)C(=O)OC(C)(C)C)C(=O)C1=Cc2ccc(-c3cccc(S(=O)(=O)N4CC(CO)C4)c3)cc2N=C(N)C1              =            6.26
 4  CCCN(CCNC(=O)OC(C)(C)C)C(=O)C1=Cc2ccc(-c3cccc(S(=O)(=O)N4CC(CO)C4)c3)cc2N=C(N)C1              <            5.05
 5  CCCN(CCC)C(=O)C1=Cc2ccc(C(=O)Nc3cncc(CNC(=O)OC(C)(C)C)c3)cc2N=C(N)C1              <            5.05
 6  CCCN(CCC)C(=O)C1=Cc2c(CCCCNC(=O)OC(C)(C)C)cc(-c3cccc(S(=O)(=O)N4CC(CO)C4)c3)cc2N=C(N)C1              =            6.81
 7  CCCN(CCC)C(=O)C1=Cc2c(CCCCN)cc(-c3cccc(S(=O)(=O)N4CC(CO)C4)c3)cc2N=C(N)C1              <            5.05
 8  CCCN(CCCCCNC(=O)OC(C)(C)C)C(=O)C1=Cc2ccc(-c3cccc(S(=O)(=O)N4CC(CO)C4)c3)cc2N=C(N)C1              =            5.06
 9  CCCN(CCCNC(=O)Nc1cccc(C#N)c1)C(=O)C1=Cc2ccc(-c3cccc(S(=O)(=O)N4CC(CO)C4)c3)cc2N=C(N)C1              =            5.60
10  CCCN(CCC)C(=O)C1=Cc2ccc(-c3ccc(CN)c(S(=O)(=O)N4CC(CO)C4)c3)cc2N=C(N)C1              <            5.05
11  CCCN(CCC)C(=O)C1=Cc2ccc(-c3cccc(S(=O)(=O)N4CC(CN)C4)c3)cc2N=C(N)C1              <            5.05
12  CCCN(CCC)C(=O)C1=Cc2ccc(-c3cccc(S(=O)(=O)N4CC(CNC(=O)OC(C)(C)C)C4)c3)cc2N=C(N)C1              <            5.05
13  CCCN(CCCN(C)C(=O)OC(C)(C)C)C(=O)C1=Cc2ccc(-c3ccc(C(=O)N4CCCC4)cc3)cc2N=C(N)C1              =            5.47
14  CCCN(CCCNC(=O)NC(C)(C)C)C(=O)C1=Cc2ccc(-c3cccc(S(=O)(=O)N4CC(CO)C4)c3)cc2N=C(N)C1              =            5.11
15  CCCN(CCCNC(=O)OC(C)(C)C)C(=O)C1=Cc2ccc(-c3ccc(C(=O)N4CCCC4)cc3)cc2N=C(N)C1              =            5.83

Entry source: patent US20200390899A1
